Attribution: patent US20250026859A1

target_desc: T1, DXd-conjugated antigen
T1 construct: also called DXd conjugated antigens
measurement_protocol: competitive ELISA: coated DXd-conjugated antigen, antibody titrated with 1 ug/ml free biotin-DXd (small molecule) as competitor, streptavidin-HRP detection
readout_label: IC50 (ng/mL)
Report only the number, with the unit ng/mL understood.

[ask] Requested field: IC50. Item: 76G4 (antibody, V domains shown, also called recombinant anti-DXd mAb 76G4) VH: QSVEESGGRLVTPGTPLTLTCTASGFSLSSYYMFWVRQAPGKGLEYIGYIGDGGYTSYATWAKGRFTISKTSSTTVDLKITSPTTEDTATYFCARDGFTSGSIWGPGTLVTVSS VL: AAVLTQTPSPVSTAVGGTVTISCQSSKNVYNNNWLSWFQQKPGQPPKLLIYGTSTLASGVPSRFKGSGSGTQFTLTISDVQCDDAATYYCAGGYSSSSDNGFGAGTEVVVK
[reply] 0.753
